B1: FEM1B (parent)
chain: TLAALLLNRSESDIRYLLGYVSQQ

Variants of: B1
Test: protein stability index of a GFP-peptide fusion (GPS, HEK-293T) (PSI 1-6); higher = more stable;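 also: lentivirally expressed fusions sorted by FACS into six bins by GFP to DsRed ratio, PSI derived from sequencing read proportions per bin multiplied by bin number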
Conditions: c terminus: a fixed tail appended
endpoint: protein stability index
Number only, please.

>>> reportedvalue("R9H")
1.58
>>> reportedvalue("D13R")
2.72
>>> reportedvalue("Y20M")
4.22
>>> reportedvalue("S22R")
2.37
>>> reportedvalue("A4K")
2.59
>>> reportedvalue("A4P")
2.09
>>> reportedvalue("N8S")
2.67
>>> reportedvalue("A3D")
2
>>> reportedvalue("R15S")
3.23
>>> reportedvalue("S12T")
2.18

Looking up Y16A , I found its protein stability index recorded as 4.57
